Assay: protein stability index of a GFP-peptide fusion (yeast GPS) (PSI 1-4); higher = more stable; sorted into four equal gates, so the index is relative within each strain
Conditions: pdr5∆
ENDPOINT NAME: protein stability index
Number only, no unit.

Consider the reported protein stability index for these sequences:
KLHEFYLLISKENKKRK [IRR1] = 2.65
NYQYKIQELRKLLKSLL [MED7] = 1.88
VVFRDPYKYRLREEIFI [RPL2A] = 2.66
TQLQICLDQMTEQFCAT [SRB7] = 2.88
PDKLLGVILMFAAILVL [COB] = 1.62

Fill in: protein stability index of NTATNALRPSDIFGANA [YOR098C/NUP1] is ___
3.24

Next sequence: YGTRPLVLPPVVTSSVA [SNF2]
2.06
